Reported values of melting point for individual entries

>  <compound>
CC1(COc2ccc(N3CCN(c4ccc(C(F)(F)F)cc4)CC3)cc2)Cn2cc([N+](=O)[O-])nc2O1 (stereo not given)

>  <melting point>
231 to 233 °C

$$$$
>  <compound>
Clc1ccc2c(c1)C=C(Cn1ccnc1)c1ccsc1S2

>  <melting point>
154 to 156 °C

$$$$
>  <compound>
CNc1ccc(CCl)cc1[N+](=O)[O-]

>  <melting point>
126 to 128 °C

$$$$
>  <compound>
CC(C)(C)OC(=O)CC1(O)CCc2c([nH]c3ccccc23)C1=O (stereo not given)

>  <melting point>
156 to 157 °C

$$$$
>  <compound>
COc1ccccc1N1CCN(C(=O)N(C)c2nc(C)c(C)nc2OC)CC1

>  <melting point>
140 to 142 °C

$$$$

Sourced from a melting point compilation (Tetko et al.; mined from patent text by program, amines drawn as free bases though some values may be those of a salt)
